The reported measurements were obtained from ChEMBL document CHEMBL4828767.

- method: in vivo
- experimentalParameters: rat, po
- Description: Oral bioavailability in rat
quantityMeasured: bioavailability (%)
Report only the number, with the unit % understood.

Lookup: Using the record for NC(=O)c1cccc2c(N[C@H](CN3CCC3)c3ccc(Cl)c(C(F)(F)F)c3)ncnc12 [RUPITASERTIB] , report its bioavailability.
Found: 15

###

Can you tell me half-life for the items I'm about to list?
- method: in vivo
- experimentalParameters: mouse
// units = h; emit number, no label

Lookup: Record request: half-life value, item `CNC[C@@H](Nc1ncnc2c(C(N)=O)cccc12)c1cccc(F)c1`
Found: 2.1

Lookup: Record: `NC(=O)c1cccc2c(N[C@H](CN3CCC3)c3ccc(Cl)c(C(F)(F)F)c3)ncnc12`
Found: 4.3
